System: CYP1A2 (PH), CYP2B6 (BP), CYP2E1 (CLN), CYP2C9 (TBD), CYP2A6 (CAN), CYP3A4 (MDZ)
Assay: in vitro
Details: chicken, pH 7.4
readout-name: Km (µM)
All answers are understood in µM, so give the number only.

Example results:
1) O=c1ccc2ccccc2o1	56.1
2) Cc1ncc2n1-c1ccc(Cl)cc1C(c1ccccc1F)=NC2	3.31

Now for another entry.
Name the reported Km value associated with the compound `CCOc1ccc(NC(C)=O)cc1`
20.7

###

Tested on: CYP2C9
Experiment: in vitro
Conditions: chicken, microsomes, pH 7.4
readout-name: IC50

Name the reported IC50 value associated with the compound C=C[C@]1(C)C[C@@H](OC(=O)CSCCN(CC)CC)[C@]2(C)[C@H](C)CC[C@]3(CCC(=O)[C@H]32)[C@@H](C)[C@@H]1O [TIA, tiamulin]
> 40 µM

###

Assay: in vivo
Assay type: in vivo, broiler chickens (Ross 308)
Conditions: male, Ross 308, in vivo, po, 25 mg/kg, TIA oral bolus 25 mg/kg BW; chickens pretreated with AFB1 contaminated diet (20 µg/kg feed for 2 weeks); n = 8; mean ± SD; read-out: AUCINF_obs, Treatment
readout-name: AUC(0-inf) (ng·h/mL)
All answers are understood in ng·h/mL, so give the number only.

Name the reported AUC(0-inf) value associated with the compound C=C[C@]1(C)C[C@@H](OC(=O)CSCCN(CC)CC)[C@]2(C)[C@H](C)CC[C@]3(CCC(=O)[C@H]32)[C@@H](C)[C@@H]1O [TIA, tiamulin]
586

###

Assay: in vivo
Format: in vivo, broiler chickens (Ross 308)
Settings: male, Ross 308, in vivo, po, 25 mg/kg, TIA oral bolus 25 mg/kg BW; chickens pretreated with AFB1 contaminated diet (20 µg/kg feed for 2 weeks); n = 8; mean ± SD; read-out: Tmax, Treatment
readout-name: Tmax (h)
All answers are understood in h, so give the number only.

Name the reported Tmax value associated with the compound `C=C[C@]1(C)C[C@@H](OC(=O)CSCCN(CC)CC)[C@]2(C)[C@H](C)CC[C@]3(CCC(=O)[C@H]32)[C@@H](C)[C@@H]1O`
1

###

System: CYP1A2 (PH), CYP2B6 (BP), CYP2E1 (CLN), CYP2C9 (TBD), CYP2A6 (CAN), CYP3A4 (MDZ)
Assay: in vitro
Conditions: broiler, chicken, pH 7.4
readout-name: Km (µM)
All answers are understood in µM, so give the number only.

Example results:
1) Cc1ncc2n1-c1ccc(Cl)cc1C(c1ccccc1F)=NC2	3.3
2) O=c1ccc2ccccc2o1	56.1

Now for another entry.
Name the reported Km value associated with the compound `CCOc1ccc(NC(C)=O)cc1`
20.7

###

Test system: CYP2B6
Assay: in vitro
Conditions: chicken, microsomes, pH 7.4
pIC50: −log10 of the molar value.
readout-name: pIC50

Can you look up pIC50 on CYP2B6 for C=C[C@]1(C)C[C@@H](OC(=O)CSCCN(CC)CC)[C@]2(C)[C@H](C)CC[C@]3(CCC(=O)[C@H]32)[C@@H](C)[C@@H]1O [TIA, tiamulin] ?
< 4.40

###

System: CYP3A4
Assay: in vitro
Conditions: chicken, microsomes, pH 7.4
readout-name: IC50

Name the reported IC50 value associated with the compound C=C[C@]1(C)C[C@@H](OC(=O)CSCCN(CC)CC)[C@]2(C)[C@H](C)CC[C@]3(CCC(=O)[C@H]32)[C@@H](C)[C@@H]1O [TIA, tiamulin]
> 40 µM

###

System: CYP1A2
Test: in vitro
Settings: chicken, microsomes, pH 7.4
readout-name: IC50

Name the reported IC50 value associated with the compound C=C[C@]1(C)C[C@@H](OC(=O)CSCCN(CC)CC)[C@]2(C)[C@H](C)CC[C@]3(CCC(=O)[C@H]32)[C@@H](C)[C@@H]1O [TIA, tiamulin]
> 40 µM

###

System: CYP2E1
Experiment: in vitro
Settings: chicken, microsomes, pH 7.4
readout-name: IC50

Name the reported IC50 value associated with the compound C=C[C@]1(C)C[C@@H](OC(=O)CSCCN(CC)CC)[C@]2(C)[C@H](C)CC[C@]3(CCC(=O)[C@H]32)[C@@H](C)[C@@H]1O [TIA, tiamulin]
> 40 µM

###

Tested on: CYP1A2, CYP2B6, CYP2E1, CYP2C9, CYP2A6, CYP3A4 (summary bound over all)
Assay: in vitro
Settings: chicken, microsomes, pH 7.4
pIC50: −log10 of the molar value.
readout-name: pIC50

Name the reported pIC50 value associated with the molecule `C=C[C@]1(C)C[C@@H](OC(=O)CSCCN(CC)CC)[C@]2(C)[C@H](C)CC[C@]3(CCC(=O)[C@H]32)[C@@H](C)[C@@H]1O`
< 5.12
